Origin of values: patent US20070244048A1

biological target: T1, human NMUR2 (human, UniProt Q9GZQ4 1-415); experiment: 125I-hNMU-25 displacement, HEK cell membranes
T1 construct: whole, on cells; Stably expressed in cells (FLIPR); also called hNMUR2; human R2
T1 sequence (Q9GZQ4 whole entry): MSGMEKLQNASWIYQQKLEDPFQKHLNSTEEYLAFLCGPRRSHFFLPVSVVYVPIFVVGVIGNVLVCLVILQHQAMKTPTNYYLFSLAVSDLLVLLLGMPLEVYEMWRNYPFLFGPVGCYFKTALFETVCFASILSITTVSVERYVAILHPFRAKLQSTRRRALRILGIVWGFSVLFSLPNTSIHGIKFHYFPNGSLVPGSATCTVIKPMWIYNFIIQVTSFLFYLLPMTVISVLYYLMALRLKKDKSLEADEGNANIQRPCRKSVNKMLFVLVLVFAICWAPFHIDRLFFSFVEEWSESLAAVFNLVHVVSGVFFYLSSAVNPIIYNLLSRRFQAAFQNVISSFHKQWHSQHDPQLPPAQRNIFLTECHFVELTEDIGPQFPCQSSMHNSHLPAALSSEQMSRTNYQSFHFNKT
Non-standard residues stand in square brackets, D forms with d. No end group written: not given here. *: point of attachment. Succinimide(1-Et,3-yl) = CCN1C(=O)CC(*)C1=O; hArg = N=C(N)NCCCC[C@H](N)C(=O)O
Let's look at some binders and their measured % activity (binding).
Numbers only here, please. The scale is %.

Take a look at these entries with their results.
binder: FWLFRP[hArg]N-NH2 (N-terminus assumed; SMILES CC(C)C[C@H](NC(=O)[C@H](Cc1c[nH]c2ccccc12)NC(=O)[C@@H](N)Cc1ccccc1)C(=O)N[C@@H](Cc1ccccc1)C(=O)N[C@@H](CCCNC(=N)N)C(=O)N1CCC[C@H]1C(=O)N[C@@H](CCCCNC(=N)N)C(=O)N[C@@H](CC(N)=O)C(N)=O) [neuromedin U receptor agonist I]
result.unit: %
experimental.result: 90

binder: FRVDEEFQSPFASQSRGYFWRPRN-NH2 [neuromedin U receptor agonist G]
result.unit: %
experimental.result: 33

binder: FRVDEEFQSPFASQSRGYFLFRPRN-NH2 (also called hNMU-25; native hNMU) [human NMU-25]
result.unit: %
experimental.result: 100

Input line: Would you mind telling me what % activity (binding) value was observed for Ac-C(Succinimide(1-Et,3-yl))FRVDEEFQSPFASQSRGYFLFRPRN-NH2 [NMU8] ?
Output line: 100
